Reference for the values: paper PMC9380671

test system: HCT116 (colon) cancer cell line; assay: MTT antiproliferation, HCT116; type: cell-based, human; details: Homo sapiens, HCT-116, 72 h, read-out: IC50 (µM) ± SEM HCT116
Binarize IC50 at 5 µM; below is T, at or above is F.

CN1CC(c2ccc(F)cc2)C2(CN(S(C)(=O)=O)C/C(=C\c3ccc(F)cc3)C2=O)C12C(=O)Nc1ccc(Cl)cc12 (stereo not drawn); F

Strictly below 5 µM in IC50? CN1CC(c2ccccc2)C2(CN(S(C)(=O)=O)C/C(=C\c3ccccc3)C2=O)C12C(=O)Nc1ccccc12 (stereo not drawn)
F

In plain terms, does CCS(=O)(=O)N1C/C(=C\c2ccc(Cl)cc2)C(=O)C2(C1)C(c1ccc(Cl)cc1)CN(C)C21C(=O)Nc2ccccc21 (stereo not drawn) come in under 5 µM for IC50?
T

Does CCS(=O)(=O)N1C/C(=C\c2ccc(Cl)cc2)C(=O)C2(C1)C(c1ccc(Cl)cc1)CN(C)C21C(=O)Nc2ccc(Cl)cc21 (stereo not drawn) have IC50 strictly under 5 µM?
T

Answer whether the molecule CN1CC(c2ccc(Br)cc2)C2(CN(S(C)(=O)=O)C/C(=C\c3ccc(Br)cc3)C2=O)C12C(=O)Nc1ccccc12 (stereo not drawn) has IC50 strictly less than 5 µM
T

###

assay: MTT cytotoxicity assay (CC50); assay type: cell-based; conditions: African green monkey, VERO-E6 cells
Value kind: log10(CC50 at 24 h) (log10 of the value in µM)
Log10 applied to CC50 at 24 h; unit prior to transform: µM.

CCS(=O)(=O)N1C/C(=C\c2ccccc2)C(=O)C2(C1)C(c1ccccc1)CN(C)C21C(=O)Nc2ccccc21 (stereo not drawn) [Compound 6c]; 3.76

In plain terms, CN1CC(c2ccc(Cl)cc2)C2(CN(S(C)(=O)=O)C/C(=C\c3ccc(Cl)cc3)C2=O)C12C(=O)Nc1ccc(Cl)cc12 (stereo not drawn) [Compound 6j] has a documented log10(CC50 at 24 h) of 2.30

CN1CC(c2ccc(F)cc2)C2(CN(S(C)(=O)=O)C/C(=C\c3ccc(F)cc3)C2=O)C12C(=O)Nc1ccccc12 (stereo not drawn) [Compound 6e] yielded log10(CC50 at 24 h) of 2.31

###

# Lookup of reported VEGFR-2 RQ (relative quantification) keyed by entry
molecular target: VEGFR-2 (Homo sapiens); construct: Western blot technique was considered for EGFR and VEGFR-2 properties determination; endogenous in cells; host or cells: MCF7 (breast cancer cell line); assay type: cell-based; details: western blot, MCF7, compound at its MTT IC50; control RQ 3.2634
Sequence (P35968 20-1356): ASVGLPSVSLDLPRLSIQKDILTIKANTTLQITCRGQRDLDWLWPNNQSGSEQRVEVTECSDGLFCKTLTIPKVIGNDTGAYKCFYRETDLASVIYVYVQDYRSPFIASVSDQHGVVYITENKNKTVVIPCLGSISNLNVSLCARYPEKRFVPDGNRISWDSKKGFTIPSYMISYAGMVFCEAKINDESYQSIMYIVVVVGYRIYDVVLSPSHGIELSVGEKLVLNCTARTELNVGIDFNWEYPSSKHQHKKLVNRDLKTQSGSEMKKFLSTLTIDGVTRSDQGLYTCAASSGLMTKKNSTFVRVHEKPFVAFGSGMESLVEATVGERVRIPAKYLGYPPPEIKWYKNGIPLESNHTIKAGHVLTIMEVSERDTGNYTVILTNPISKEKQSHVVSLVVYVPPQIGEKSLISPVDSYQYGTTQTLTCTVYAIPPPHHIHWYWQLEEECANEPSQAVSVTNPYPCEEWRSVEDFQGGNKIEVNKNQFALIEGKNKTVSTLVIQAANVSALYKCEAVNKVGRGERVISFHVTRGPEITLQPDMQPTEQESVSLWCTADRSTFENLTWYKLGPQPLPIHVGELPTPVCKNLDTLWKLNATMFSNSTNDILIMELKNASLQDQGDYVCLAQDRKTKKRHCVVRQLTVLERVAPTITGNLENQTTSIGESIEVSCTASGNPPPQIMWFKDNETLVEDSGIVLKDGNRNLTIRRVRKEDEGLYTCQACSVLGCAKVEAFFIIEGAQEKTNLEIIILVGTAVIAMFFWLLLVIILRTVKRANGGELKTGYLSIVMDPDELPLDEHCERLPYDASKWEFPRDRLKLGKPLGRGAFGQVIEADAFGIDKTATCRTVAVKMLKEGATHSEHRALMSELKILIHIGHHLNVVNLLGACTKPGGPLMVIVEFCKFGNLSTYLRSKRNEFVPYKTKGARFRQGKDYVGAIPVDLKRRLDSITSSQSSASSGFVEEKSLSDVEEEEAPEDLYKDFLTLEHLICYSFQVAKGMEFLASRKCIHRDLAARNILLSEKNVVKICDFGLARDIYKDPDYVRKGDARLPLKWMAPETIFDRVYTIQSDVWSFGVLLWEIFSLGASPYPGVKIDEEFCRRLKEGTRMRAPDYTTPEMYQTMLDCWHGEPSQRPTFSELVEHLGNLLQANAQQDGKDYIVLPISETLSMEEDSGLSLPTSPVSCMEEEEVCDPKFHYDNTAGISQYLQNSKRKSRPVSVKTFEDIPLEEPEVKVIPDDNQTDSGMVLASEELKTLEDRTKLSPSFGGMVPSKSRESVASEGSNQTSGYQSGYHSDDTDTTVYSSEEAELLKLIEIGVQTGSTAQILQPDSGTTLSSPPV
Lab note: jot the number down without any unit.

Study these solved cases before continuing.
COc1ccc(/C=C2\CN(S(C)(=O)=O)CC3(C2=O)C(c2ccc(OC)c(OC)c2)CN(C)C32C(=O)Nc3ccc(Cl)cc32)cc1OC (stereo not drawn) [Compound 6o]; 1.2473
CCS(=O)(=O)N1C/C(=C\c2ccccc2)C(=O)C2(C1)C(c1ccccc1)CN(C)C21C(=O)Nc2ccc(Cl)cc21 (stereo not drawn) [Compound 6d]; 1.181

Sample CCS(=O)(=O)N1C/C(=C\c2ccc(Cl)cc2)C(=O)C2(C1)C(c1ccc(Cl)cc1)CN(C)C21C(=O)Nc2ccccc21 (stereo not drawn) [Compound 6k] ; VEGFR-2 RQ (relative quantification) observed: 1.105

Form field VEGFR-2 RQ (relative quantification), entry CN1CC(c2ccccc2)C2(CN(S(C)(=O)=O)C/C(=C\c3ccccc3)C2=O)C12C(=O)Nc1ccccc12 (stereo not drawn) [Compound 6a] : 1.2773

The reported VEGFR-2 RQ (relative quantification) of the compound CN1CC(c2ccc(F)cc2)C2(CN(S(C)(=O)=O)C/C(=C\c3ccc(F)cc3)C2=O)C12C(=O)Nc1ccc(Cl)cc12 (stereo not drawn) [Compound 6f] was 1.153

Lab note: measured VEGFR-2 RQ (relative quantification) of CN1CC(c2ccccc2)C2(CN(S(C)(=O)=O)C/C(=C\c3ccccc3)C2=O)C12C(=O)Nc1ccc(Cl)cc12 (stereo not drawn) [Compound 6b] was 1.167

The compound CCS(=O)(=O)N1C/C(=C\c2ccccc2)C(=O)C2(C1)C(c1ccccc1)CN(C)C21C(=O)Nc2ccccc21 (stereo not drawn) [Compound 6c] showed VEGFR-2 RQ (relative quantification) equal to 1.18

VEGFR-2 RQ (relative quantification) reported for this compound CN1CC(c2ccc(Cl)cc2)C2(CN(S(C)(=O)=O)C/C(=C\c3ccc(Cl)cc3)C2=O)C12C(=O)Nc1ccc(Cl)cc12 (stereo not drawn) [Compound 6j] : 1.3745

Note to self: VEGFR-2 RQ (relative quantification) recorded for CN1CC(c2ccc(Br)cc2)C2(CN(S(C)(=O)=O)C/C(=C\c3ccc(Br)cc3)C2=O)C12C(=O)Nc1ccccc12 (stereo not drawn) [Compound 6m] was 1.264

###

tested on: A431 (skin squamous) cancer cell line; assay: MTT antiproliferation, A431; format: cell-based, human; settings: Homo sapiens, A-431, read-out: Observed log(IC50, μM) (A431) (converted)
Catalogue of IC50 readings, one per entry.
Numeric only. Scale: µM

CCS(=O)(=O)N1C/C(=C\c2ccc(F)cc2)C(=O)C2(C1)C(c1ccc(F)cc1)CN(C)C21C(=O)Nc2ccccc21 (stereo not shown); 6.17
CN1CC(c2ccccc2)C2(CN(S(C)(=O)=O)C/C(=C\c3ccccc3)C2=O)C12C(=O)Nc1ccccc12 (stereo not shown); 32.3
CN1CC(c2ccc(F)cc2)C2(CN(S(C)(=O)=O)C/C(=C\c3ccc(F)cc3)C2=O)C12C(=O)Nc1ccc(Cl)cc12 (stereo not shown); 4.76

Okay, next one:
CCS(=O)(=O)N1C/C(=C\c2ccccc2)C(=O)C2(C1)C(c1ccccc1)CN(C)C21C(=O)Nc2ccccc21 (stereo not shown) on A431 (skin squamous) cancer cell line gives IC50 = 33.2

###

We begin with a simple list: items and their reported EGFR RQ (relative quantification).
Biological target: EGFR (Homo sapiens, UniProt P00533)
Construct: Western blot technique was considered for EGFR and VEGFR-2 properties determination; endogenous in cells; host or cells: MCF7 (breast cancer cell line)
Sequence (P00533 25-1210): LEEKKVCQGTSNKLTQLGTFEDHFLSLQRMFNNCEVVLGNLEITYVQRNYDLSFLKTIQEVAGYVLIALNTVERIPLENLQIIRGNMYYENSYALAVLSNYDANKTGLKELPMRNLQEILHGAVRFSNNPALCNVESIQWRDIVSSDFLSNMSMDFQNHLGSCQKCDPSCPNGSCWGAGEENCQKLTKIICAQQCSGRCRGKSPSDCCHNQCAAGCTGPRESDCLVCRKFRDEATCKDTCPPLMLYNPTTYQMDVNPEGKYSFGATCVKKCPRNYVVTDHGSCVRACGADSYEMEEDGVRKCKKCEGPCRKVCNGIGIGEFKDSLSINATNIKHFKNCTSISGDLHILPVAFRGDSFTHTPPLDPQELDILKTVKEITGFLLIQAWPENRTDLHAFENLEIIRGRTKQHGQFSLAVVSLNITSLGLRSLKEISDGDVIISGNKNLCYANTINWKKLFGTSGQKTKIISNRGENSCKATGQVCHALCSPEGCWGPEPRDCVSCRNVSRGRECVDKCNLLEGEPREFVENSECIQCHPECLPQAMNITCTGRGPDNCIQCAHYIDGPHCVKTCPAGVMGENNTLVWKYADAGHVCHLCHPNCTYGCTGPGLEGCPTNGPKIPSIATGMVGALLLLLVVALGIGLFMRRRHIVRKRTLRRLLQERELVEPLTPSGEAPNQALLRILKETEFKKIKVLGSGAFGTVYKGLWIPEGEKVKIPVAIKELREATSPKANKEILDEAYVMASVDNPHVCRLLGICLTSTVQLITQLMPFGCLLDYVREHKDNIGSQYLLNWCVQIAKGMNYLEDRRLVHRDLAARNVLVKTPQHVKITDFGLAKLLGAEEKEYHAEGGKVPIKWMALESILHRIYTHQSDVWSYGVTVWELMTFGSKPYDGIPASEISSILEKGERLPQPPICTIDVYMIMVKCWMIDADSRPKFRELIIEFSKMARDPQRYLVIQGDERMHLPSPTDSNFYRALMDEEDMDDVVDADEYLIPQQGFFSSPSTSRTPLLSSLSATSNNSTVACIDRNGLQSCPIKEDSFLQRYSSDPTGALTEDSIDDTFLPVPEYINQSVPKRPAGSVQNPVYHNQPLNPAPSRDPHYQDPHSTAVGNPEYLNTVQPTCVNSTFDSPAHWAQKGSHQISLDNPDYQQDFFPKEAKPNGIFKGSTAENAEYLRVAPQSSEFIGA
Assay type: cell-based
Conditions: western blot, MCF7, compound at its MTT IC50; control RQ 3.4461
Excerpt: The western blot technique was applied utilizing the IC50 observed for each respective agent synthesized during MTT assay[85],[86]. Consideration of multi-targeted inhibitory properties investigation is based in the fact that cancer initiation and proliferation sometimes utilizes many receptors or signaling pathways. […]
Lab note: write the figure by itself, no unit.

Entry CN1CC(c2ccc(Br)cc2)C2(CN(S(C)(=O)=O)C/C(=C\c3ccc(Br)cc3)C2=O)C12C(=O)Nc1ccccc12 (centres unmarked) , EGFR RQ (relative quantification) reported as 1.1845

Looking up CCS(=O)(=O)N1C/C(=C\c2ccc(Cl)cc2)C(=O)C2(C1)C(c1ccc(Cl)cc1)CN(C)C21C(=O)Nc2ccc(Cl)cc21 (centres unmarked) , I see its EGFR RQ (relative quantification) listed as 1.18

Sample COc1ccc(/C=C2\CN(S(C)(=O)=O)CC3(C2=O)C(c2ccc(OC)c(OC)c2)CN(C)C32C(=O)Nc3ccc(Cl)cc32)cc1OC (centres unmarked) ; EGFR RQ (relative quantification) observed: 1.175

Input CN1CC(c2ccc(F)cc2)C2(CN(S(C)(=O)=O)C/C(=C\c3ccc(F)cc3)C2=O)C12C(=O)Nc1ccc(Cl)cc12 (centres unmarked) . Output EGFR RQ (relative quantification): 1.058

Given item CCS(=O)(=O)N1C/C(=C\c2ccc(Cl)cc2)C(=O)C2(C1)C(c1ccc(Cl)cc1)CN(C)C21C(=O)Nc2ccccc21 (centres unmarked) , the value recorded as its EGFR RQ (relative quantification) is 1.163

###

target: UniProtKB P06276
Sequence (P06276 29-602, species assumed): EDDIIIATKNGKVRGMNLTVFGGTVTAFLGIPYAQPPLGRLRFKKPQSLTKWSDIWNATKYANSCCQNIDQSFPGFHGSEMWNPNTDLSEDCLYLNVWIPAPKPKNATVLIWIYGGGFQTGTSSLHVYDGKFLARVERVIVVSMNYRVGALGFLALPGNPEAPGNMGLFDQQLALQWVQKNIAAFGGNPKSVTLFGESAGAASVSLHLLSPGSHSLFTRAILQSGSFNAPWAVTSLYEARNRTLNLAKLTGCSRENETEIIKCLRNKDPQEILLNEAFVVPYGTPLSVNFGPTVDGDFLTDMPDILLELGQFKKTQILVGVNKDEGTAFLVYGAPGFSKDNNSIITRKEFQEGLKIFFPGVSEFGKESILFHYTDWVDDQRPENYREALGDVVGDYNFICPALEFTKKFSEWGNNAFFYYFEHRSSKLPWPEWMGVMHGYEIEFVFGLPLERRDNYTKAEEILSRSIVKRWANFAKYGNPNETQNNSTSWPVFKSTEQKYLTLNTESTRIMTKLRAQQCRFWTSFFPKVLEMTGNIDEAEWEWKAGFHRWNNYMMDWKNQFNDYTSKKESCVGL
Value kind: IC50 (µM)
State just the number; it will be interpreted in µM.

The recorded IC50 for entry CCS(=O)(=O)N1C/C(=C\c2ccc(F)cc2)C(=O)C2(C1)C(c1ccc(F)cc1)CN(C)C21C(=O)Nc2ccc(Cl)cc21 (stereo not drawn) equals 8.07

Data point: CN1CC(c2ccc(Cl)cc2)C2(CN(S(C)(=O)=O)C/C(=C\c3ccc(Cl)cc3)C2=O)C12C(=O)Nc1ccccc12 (stereo not drawn) ; IC50 = 13.6

Per the records, this molecule ( CCS(=O)(=O)N1C/C(=C\c2ccc(Cl)cc2)C(=O)C2(C1)C(c1ccc(Cl)cc1)CN(C)C21C(=O)Nc2ccc(Cl)cc21 (stereo not drawn) ) has IC50 equal to 11.8

###

test system: MCF7 (breast) cancer cell line; assay: MTT antiproliferation, MCF7; assay type: cell-based, human; conditions: IC50 of RPE1/IC50 of cancer cell line
Value kind: SI (selectivity index) MCF7
// return a plain number; no unit text

Worked cases, SI (selectivity index) MCF7 given:
CN1CC(c2ccc(F)cc2)C2(CN(S(C)(=O)=O)C/C(=C\c3ccc(F)cc3)C2=O)C12C(=O)Nc1ccc(Cl)cc12 (stereo not drawn); 3.6
CN1CC(c2ccc(Cl)cc2)C2(CN(S(C)(=O)=O)C/C(=C\c3ccc(Cl)cc3)C2=O)C12C(=O)Nc1ccccc12 (stereo not drawn); 2.9
CN1CC(c2ccccc2)C2(CN(S(C)(=O)=O)C/C(=C\c3ccccc3)C2=O)C12C(=O)Nc1ccc(Cl)cc12 (stereo not drawn); 3.2

From here, focus on the item given below.
The compound identified as CN1CC(c2ccc(Br)cc2)C2(CN(S(C)(=O)=O)C/C(=C\c3ccc(Br)cc3)C2=O)C12C(=O)Nc1ccccc12 (stereo not drawn) registered its SI (selectivity index) MCF7 at 4.1
